Recorded values, source the M2OR odorant receptor database.

biological target: OR51L1 (Homo sapiens) (UniProt Q8NGJ5); details: stereoisomer not certain
Sequence (Q8NGJ5 whole entry): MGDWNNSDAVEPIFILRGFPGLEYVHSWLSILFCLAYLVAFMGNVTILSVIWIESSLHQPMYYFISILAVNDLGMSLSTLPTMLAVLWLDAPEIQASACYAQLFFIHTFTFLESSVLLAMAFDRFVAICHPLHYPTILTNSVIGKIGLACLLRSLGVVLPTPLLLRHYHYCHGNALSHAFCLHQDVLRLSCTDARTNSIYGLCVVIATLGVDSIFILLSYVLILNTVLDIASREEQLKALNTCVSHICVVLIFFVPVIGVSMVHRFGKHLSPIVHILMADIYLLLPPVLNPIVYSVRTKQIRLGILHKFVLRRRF

{"given smiles": "c1ccccc1", "odorant receptor agonist call": "inactive"}
{"given smiles": "CCCCCCCO", "odorant receptor agonist call": "inactive"}
{"given smiles": "CCCCCCOC(C)=O", "odorant receptor agonist call": "inactive"}
{"given smiles": "CCC(=O)O", "odorant receptor agonist call": "inactive"}

---

target: OR2A25 (Homo sapiens); settings: stereoisomer not certain
measured metric: odorant receptor agonist call

{"compound": "CC1=C(O)C(=O)OC1C (configuration not stated)", "measured metric": "odorant receptor agonist call", "value observed": "inactive"}
{"compound": "Cc1cnc(C)c(C)n1", "measured metric": "odorant receptor agonist call", "value observed": "inactive"}
{"compound": "CCCCCC(S)C(C)CO (configuration not stated)", "measured metric": "odorant receptor agonist call", "value observed": "inactive"}
{"compound": "CCCCCC(=O)C(C)C(C)=O (configuration not stated)", "measured metric": "odorant receptor agonist call", "value observed": "inactive"}
{"compound": "CCC1OC(C)=C(O)C1=O (configuration not stated)", "measured metric": "odorant receptor agonist call", "value observed": "inactive"}
{"compound": "CCC(S)C(C)CO (configuration not stated)", "measured metric": "odorant receptor agonist call", "value observed": "inactive"}
{"compound": "CC1CCCCCCCCCCCCC(=O)C1 (configuration not stated)", "measured metric": "odorant receptor agonist call", "value observed": "inactive"}
